Biological target: T1, Recombinant FGFR4 (G&P Biosciences) (human, UniProt P22455 22-369)
T1 construct: Bought protein; the SPR method says only 'Recombinant; also called rFGFR4; extracellular FGFR4
T1 sequence: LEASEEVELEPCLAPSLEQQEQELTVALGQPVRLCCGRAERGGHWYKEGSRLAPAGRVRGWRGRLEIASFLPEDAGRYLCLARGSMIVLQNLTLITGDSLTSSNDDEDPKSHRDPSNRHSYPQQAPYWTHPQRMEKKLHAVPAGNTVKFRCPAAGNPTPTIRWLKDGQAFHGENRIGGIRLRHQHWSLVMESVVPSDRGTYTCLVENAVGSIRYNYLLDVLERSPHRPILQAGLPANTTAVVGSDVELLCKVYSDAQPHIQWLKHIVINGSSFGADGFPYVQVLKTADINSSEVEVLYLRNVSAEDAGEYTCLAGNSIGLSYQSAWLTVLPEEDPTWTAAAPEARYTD
Test: SPR (BIAcore T200), single cycle kinetics, FGFR4 amine-immobilised, nanobody as analyte, heterogeneous ligand model, component 1 (KD1)
Recorded measurements of Kd, one per entry

- Binder: "B5 nanobody (anti-FGFR4 sdAb, NaLi-H1 library) (VHH, Recombinant nanobody of about 17 kDa; also called B5 sdAb; not shown: C-terminal Myc/6xHis-tag and an additional cysteine) VHH: EVQLQASGGGFVQPGGSLRLSCAASGRTSWLTTMGWFRQAPGKEREFVSAISSFSSKQGYYADSVKGRFTISRDNSKNTVYLQMNSLRAEDTATYYCAYASYPRHQGNGRWKDFVEYWGQGTQVTVSS"
  Result Units: "pM"
  Kd: 308
- Binder: "A8 nanobody (anti-FGFR4 sdAb, NaLi-H1 library) (VHH, also called A8 sdAb; not shown: C-terminal Myc/6xHis-tag and an additional cysteine) VHH: EVQLQASGGGFVQPGGSLRLSCAASGRTYSRDTMGWFRQAPGKEREFVSAISSRHSHTTYYADSVKGRFTISRDNSKNTVYLQMNSLRAEDTATYYCAEWDVFDMHYALPPMWYWGQGTQVTVSS"
  Result Units: "pM"
  Kd: 0.00422
- Binder: "F8 nanobody (anti-FGFR4 sdAb, Gimli library) (VHH, Recombinant nanobody of about 17 kDa; also called F8 sdAb; not shown: C-terminal Myc/6xHis-tag and an additional cysteine) VHH: EVQLVESGGGLVQPGGSLRLSCAASGTGYALDDMGWVRQAPGKGLEWVSAISDDESMADYYADSVKGRFTISRDNSKNTVYLQMNSLRAEDTAVYYCASYKEYKYQSGHHYFAYRGQGTLVTVSS"
  Result Units: "pM"
  Kd: 19.1
- Binder: "B1 nanobody (anti-FGFR4 sdAb, NaLi-H1 library) (VHH, also called B1 sdAb; not shown: C-terminal Myc/6xHis-tag and an additional cysteine) VHH: EVQLQASGGGFVQPGGSLRLSCAASGYTSRSSAMGWFRQAPGKEREFVSAISDLTGYPYYYADSVKGRFTISRDNSKNTVYLQMNSLRAEDTATYYCAAYQDDKWTYGSQHGKYWGQGTQVTVSS"
  Result Units: "pM"
  Kd: 1.06

Every entry's value here was drawn from patent US20260191907A1.
